Source listed as PubChem BioAssay.

target: Calmodulin-1 (Homo sapiens) (UniProt P0DP23); test: CALM1 binders on microarrays, EGTA buffer, profiling panel, biochemical, small-molecule microarray, Cy5-labelled CALM1 (AID 1111); settings: Cy5-CALM1 binding fluorescence, higher = more signal;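 note: labelled calmodulin applied in Tris saline Tween buffer holding calcium plus EGTA and DTT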
Label label 0 if composite z-score falls below 0.9; label label 1 in every other case.

molecule	assigned.label
CC(C)(C)OC(=O)CC[C@]1(C(=O)NCC(O)CO)COC(c2ccc(OCCCO)cc2)=N1 (stereo not given in full)	label 1
CC(C)(C)OC(=O)CC[C@@]1(C(=O)NCCN2CCOCC2)N=C(c2ccc(OCCCO)cc2)O[C@@H]1c1ccccc1N=[N+]=[N-]	label 0
CC(C)c1ccc(NN2C(C(O)C(c3ccccc3)c3ccccc3)C=CC3C(=O)N(c4ccccc4)C(=O)C32)cc1 (stereo not given)	label 1
COC(=O)[C@@]1(Cc2ccc(F)cc2)[C@H]2c3cc(C(=O)N(C)C)n(Cc4nc5ccccc5[nH]4)c3C[C@H]2CN1C(=O)c1ccccc1	label 1
O=C1O[C@H](c2ccccc2)[C@H](c2ccccc2)N2[C@H]1[C@@H](C(=O)NC[C@H](O)c1ccccc1)[C@]1(C(=O)Nc3ccccc31)[C@H]2c1ccc(OCCO)cc1	label 0
O=C1OCCC/C=C\[C@H]2OC34C=CCN(Cn5nnc6ccccc65)C(=O)[C@H]3N(CCO)C(=O)[C@@H]4C12 (stereo not given in full)	label 0
C=C(COC)/C(=C/C[C@@H](OC(C)=O)c1ccc(CO)o1)c1cnc2ccccc2c1	label 0
COC(=O)[C@@]1(Cc2ccc(OC)cc2)[C@H]2c3cc(C(=O)N4CCCC4)n(Cc4ccsc4Br)c3C[C@H]2CN1C(=O)c1ccccc1	label 1
COCCOC(=O)N1C(=O)[C@@]2(c3cc(C#Cc4ccc(OC)cc4)ccc31)[C@H](C(=O)N1CCCCCCC1)[C@H]1C(=O)O[C@H](c3ccccc3)[C@H](c3ccccc3)N1[C@@H]2c1ccc(OCCO)cc1	label 1
CCOC(=O)C[C@H]1[C@H](OC(=O)Cc2ccc3c(c2)OCO3)[C@@H](NC(=O)c2ccc(-c3ccccc3)cc2)c2cc(OCCCO)ccc2N1C(=O)c1ccc2ccccc2n1	label 0
COC(=O)c1c(CC[C@@H](CO)NC(=O)N2CCC[C@H]2Cn2cc(-c3ccccn3)nn2)oc(C(C)=O)c1C(=O)OC	label 0
COC(=O)[C@@]1(Cc2ccc(OC)cc2)[C@H]2c3cc(C(=O)N(C)C)n(CCN4CNCC4=O)c3C[C@H]2CN1C(=O)c1ccccc1	label 0
O=C1C2C=CC(C(O)c3c(F)cccc3Cl)N(Nc3ccccc3)C2C(=O)N1c1ccccc1 (stereo not given)	label 1
COc1cc2c(cc1O)C=[N+](Cc1cccc(OC(F)(F)F)c1)CC2	label 0
COc1ccc(CCNC(=O)[C@@H]2c3ccccc3C(=O)N(C3Cc4ccccc4C3)[C@H]2c2ccc(CO)cc2)cc1	label 0

###

Each entry below lists one item and its recorded composite z-score value.
assay: small-molecule binders of probe aLefty1, primary screen, biochemical, small-molecule microarray, 635/667 nm fluorescence (AID 1153); conditions: higher = more signal;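 note: score merges spot fluorescence with signal-to-noise ratio from the scanned slide images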

compound	composite z-score
O=C(NCc1ccccc1)[C@@]1(Cc2ccccc2)N=C(c2ccc(OCCCO)cc2)O[C@H]1c1ccccc1	0.609
COCCOC(=O)N1C(=O)[C@@]2(c3cc(C#CC4=CCCCC4)ccc31)[C@H](C(=O)N1CCc3cc(OC)c(OC)cc3C1)[C@H]1C(=O)O[C@H](c3ccccc3)[C@H](c3ccccc3)N1[C@@H]2c1ccc(OCCO)cc1	0.0752
O=C1O[C@H](c2ccccc2)[C@H](c2ccccc2)N2[C@H]1[C@@H](C(=O)O)[C@]1(C(=O)Nc3ccc(C#CCCO)cc31)[C@H]2c1ccc(O)cc1	0.334
CC(C)N1C(=O)c2ccccc2[C@](C)(C(=O)NCc2ccccc2)[C@@H]1c1ccc(CO)cc1	-0.101
COCCOC(=O)N1C(=O)[C@@]2(c3ccccc31)[C@H](c1ccccc1OCCO)N1[C@H](c3ccccc3)[C@H](c3ccccc3)OC(=O)[C@H]1[C@@H]2C(=O)Nc1nc2ccccc2s1	0.523
CC1CC/C=C\[C@H]2OC34C=CCN(c5ccc(Cl)cc5)C(=O)[C@H]3N(CCO)C(=O)[C@]4(C)C2C(=O)O1 (some centres not stated)	-0.485
C=CCOC(=O)[C@H]1[C@@H]2C(=O)O[C@@H](c3ccccc3)[C@@H](c3ccccc3)N2[C@@H](c2ccc(OCCOC(=O)[C@H]3C[C@H]4C(=O)N5CCC[C@H]5C(=O)N4[C@H]3c3ccc(O)cc3)cc2)[C@]12C(=O)Nc1ccccc12	0.227
O=C1O[C@@H](c2ccccc2)[C@@H](c2ccccc2)N2[C@@H](c3ccccc3OCCO)[C@]3(C(=O)Nc4ccc(C#CC5=CCCCC5)cc43)[C@@H](C(=O)Nc3nc4ccccc4s3)[C@H]12	0.293
Cc1ccc(S[C@]2(C(=O)NCCN3CCOCC3)CC(=O)N(Cc3ccccc3)[C@@H]2c2ccc(CO)cc2I)cc1	0.0752
CCCC=C(CCC)[C@@H](NS(=O)(=O)c1cccs1)c1ccc(C(=O)OC)cc1	0.133
Cc1ccc(S[C@]2(C(=O)NCC(C)C)CC(=O)N(Cc3cc(C(F)(F)F)cc(C(F)(F)F)c3)[C@@H]2c2ccc(CO)cc2I)cc1	0.12
C=C(CCCC)C(=O)CC[C@@H](OC(=O)c1cccnc1)c1ccc(CO)o1	-0.289
COc1ccc(C(O)C2C=CC3C(=O)NC(=O)C3N2Nc2ccccn2)cc1 (configuration not stated)	0.0622
C=CCOC(=O)[C@H]1[C@@H]2C(=O)O[C@@H](c3ccccc3)[C@@H](c3ccccc3)N2[C@@H](c2ccc(OCCOC(=O)[C@@H]3C[C@@H]4C(=O)N[C@@H](CCCC[N+](C)(C)C)C(=O)N4[C@@H]3c3ccc(O)cc3)cc2)[C@]12C(=O)Nc1ccccc12	0.0104
C=C/C=C/[C@H]1C(=C)CN([C@@H](Cc2ccccc2)C(=O)OC)[C@@H]1[C@H](O)Cc1ccccc1	-0.239
COc1ccc(CCN2C(=O)[C@@]3(Cc4ccccc42)c2ccccc2C(=O)N(Cc2ccccc2C(F)(F)F)[C@H]3c2ccc(CO)cc2)cc1	-0.201
CN(C)CCCNC(=O)[C@@]1(C)c2ccccc2C(=O)N(Cc2cc(F)cc(C(F)(F)F)c2)[C@H]1c1ccc(CO)cc1	0.0391
CN1C(=O)C2C=CC(C(O)C3CC=CCC3)N(NC(=O)OC(C)(C)C)C2C1=O (configuration not stated)	-0.168
COc1ccc(C(O)C2C=CC3C(=O)N(C)C(=O)C3N2N2CCCCC2)c2ccccc12 (configuration not stated)	0.517
CC(=O)NCCCC[C@@H]1NC(=O)[C@@H]2C[C@H](C(=O)NCCCCN(C)C)[C@H](c3cccc(OCCO)c3)N2C1=O	-0.243
COc1ccc(C#Cc2ccc3c(c2)[C@]2(C(=O)N3)[C@H](c3ccccc3OCCO)N3[C@H](c4ccccc4)[C@H](c4ccccc4)OC(=O)[C@H]3[C@@H]2C(=O)O)cc1	1.27
O=C1C[C@]2(c3ccc([N+](=O)[O-])cc3)C(=O)N(CCN3CCOCC3)c3cc(CO)ccc3[C@H]2N1C1CCCCC1	-0.0108
C=CC[C@@]1(C(=O)NCc2ccccc2)N=C(c2ccc(OCCCO)cc2)O[C@@H]1c1ccccc1N=[N+]=[N-]	0.869
COC(=O)[C@@]1(Cc2ccc(F)cc2)[C@H]2c3cc(C(=O)N4CCCC4)n(Cc4ccc(C)o4)c3C[C@H]2CN1C(=O)c1ccccc1	-0.0464
C=CC[C@]1(C(=O)N2CCCCC2)N=C(c2ccc(OCCCO)cc2)O[C@H]1c1ccccc1	0.629
COC(=O)[C@@]1(Cc2ccc(OC)cc2)[C@H]2c3cc(C(=O)N(C)C)n(Cc4cccc5ccccc45)c3C[C@H]2CN1C(=O)c1ccccc1	0.468
CC(C)C[C@@H]1NC(=O)[C@H]2C[C@@H](C(=O)NCCCCCCN(C)C)[C@@H](c3ccc(O)cc3)N2C1=O	-0.0573
